system: Swiss 3T3 (Mus musculus); assay: Inhibition of Swiss 3T3 mouse fibroblast proliferation
Experimental endpoint: IC50 (µM)

INSERT INTO measurements (molecule, target, measure_unit, modifier, reported_measurement) VALUES
  ('COC(=O)Cc1c(SSc2[nH]c3ccccc3c2CC(=O)OC)[nH]c2ccccc12', 'Swiss 3T3 (Mus musculus)', 'µM', '=', 2.3),
  ('COC(=O)CCc1c(SSc2[nH]c3ccccc3c2CCC(=O)OC)[nH]c2ccccc12', 'Swiss 3T3 (Mus musculus)', 'µM', '=', 7.4),
  ('Cn1c(SSc2c(CC(=O)O)c3ccccc3n2C)c(CC(=O)O)c2ccccc21', 'Swiss 3T3 (Mus musculus)', 'µM', '=', 36),
  ('Cc1ccc2[nH]c(SSc3[nH]c4ccc(C)cc4c3CCC(=O)O)c(CCC(=O)O)c2c1', 'Swiss 3T3 (Mus musculus)', 'µM', '>', 50),
  ('COC(=O)CCCc1c(SSc2c(CCCC(=O)OC)c3ccccc3n2C)n(C)c2ccccc12', 'Swiss 3T3 (Mus musculus)', 'µM', '=', 1.8),
  ('O=C(O)CCC1C(S)=Nc2ccccc21 (configuration not stated)', 'Swiss 3T3 (Mus musculus)', 'µM', '=', 64),
  ('O=C(O)Cc1c(SSc2[nH]c3ccccc3c2CC(=O)O)[nH]c2ccccc12', 'Swiss 3T3 (Mus musculus)', 'µM', '>', 50),
  ('COC(=O)Cc1c(SSSc2[nH]c3ccccc3c2CC(=O)OC)[nH]c2ccccc12', 'Swiss 3T3 (Mus musculus)', 'µM', '=', 1),
  ('O=C(O)CCc1c(SSc2[nH]c3ccccc3c2CCC(=O)O)[nH]c2ccccc12', 'Swiss 3T3 (Mus musculus)', 'µM', '=', 59),
  ('COC(=O)CCc1c(SSc2c(CCC(=O)OC)c3ccccc3n2C)n(C)c2ccccc12', 'Swiss 3T3 (Mus musculus)', 'µM', '=', 5.2),
  ('COC(=O)CCC1C(S)=Nc2ccccc21 (configuration not stated)', 'Swiss 3T3 (Mus musculus)', 'µM', '=', 16),
  ('O=C(O)Cc1c(SSSc2[nH]c3ccccc3c2CC(=O)O)[nH]c2ccccc12', 'Swiss 3T3 (Mus musculus)', 'µM', '=', 8);

---

biological target: UniProt P00533; test: Inhibition of EGF-stimulated EGFR tyrosine kinase activity using plasma membrane vesicles shed from cultured human A431 carcinoma cells
The following molecules are shown together with reported IC50 values.
Experimental endpoint: IC50

INSERT INTO assay_data (molecule, reported_measurement) VALUES
  ('COC(=O)Cc1c(SSSc2[nH]c3ccccc3c2CC(=O)OC)[nH]c2ccccc12', '35 µM'),
  ('CN1C(=S)C(CCCC(=O)O)c2ccccc21 (stereo not drawn)', '> 100 µM'),
  ('COC(=O)CCN1C(=S)C(CCC(=O)OC)(CCC(=O)OC)c2ccccc21', '> 100 µM');

---

molecular target: Epidermal growth factor receptor (Homo sapiens, UniProt P00533); assay: Inhibition of EGF-stimulated EGFR tyrosine kinase activity using plasma membrane vesicles shed from cultured human A431 carcinoma cells
Sequence (P00533 whole entry): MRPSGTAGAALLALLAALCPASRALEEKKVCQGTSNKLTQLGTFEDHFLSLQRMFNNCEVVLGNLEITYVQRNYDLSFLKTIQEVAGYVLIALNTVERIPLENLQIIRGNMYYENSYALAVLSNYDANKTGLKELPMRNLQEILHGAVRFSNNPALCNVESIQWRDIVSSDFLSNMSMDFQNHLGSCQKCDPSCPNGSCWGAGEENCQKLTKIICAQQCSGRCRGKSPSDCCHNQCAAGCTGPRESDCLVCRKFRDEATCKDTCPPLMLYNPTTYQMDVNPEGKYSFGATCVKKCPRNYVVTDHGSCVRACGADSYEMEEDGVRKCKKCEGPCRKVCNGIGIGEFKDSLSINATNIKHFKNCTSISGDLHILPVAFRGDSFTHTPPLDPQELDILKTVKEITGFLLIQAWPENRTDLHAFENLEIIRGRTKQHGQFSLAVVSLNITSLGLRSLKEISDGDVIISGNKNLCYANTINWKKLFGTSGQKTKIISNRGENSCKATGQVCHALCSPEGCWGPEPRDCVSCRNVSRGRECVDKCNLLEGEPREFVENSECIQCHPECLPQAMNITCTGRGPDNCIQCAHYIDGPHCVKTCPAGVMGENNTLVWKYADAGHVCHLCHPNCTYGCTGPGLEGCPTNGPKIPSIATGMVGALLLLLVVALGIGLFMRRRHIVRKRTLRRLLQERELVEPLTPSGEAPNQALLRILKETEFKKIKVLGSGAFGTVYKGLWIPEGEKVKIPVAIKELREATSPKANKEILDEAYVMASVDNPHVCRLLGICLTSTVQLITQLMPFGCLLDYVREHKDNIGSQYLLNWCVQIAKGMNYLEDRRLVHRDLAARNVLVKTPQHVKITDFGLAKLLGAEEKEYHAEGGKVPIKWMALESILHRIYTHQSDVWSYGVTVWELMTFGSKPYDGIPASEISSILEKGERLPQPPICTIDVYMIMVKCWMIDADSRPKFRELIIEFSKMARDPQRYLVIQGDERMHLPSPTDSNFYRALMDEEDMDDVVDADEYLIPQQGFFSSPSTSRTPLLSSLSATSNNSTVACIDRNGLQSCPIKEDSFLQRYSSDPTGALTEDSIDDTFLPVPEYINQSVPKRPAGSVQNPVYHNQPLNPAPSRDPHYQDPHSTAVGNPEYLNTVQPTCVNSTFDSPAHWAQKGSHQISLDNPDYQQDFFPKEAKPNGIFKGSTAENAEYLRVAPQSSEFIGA
pIC50: −log10 of the molar value.
The following compounds are shown together with reported pIC50 values.
Experimental endpoint: pIC50

INSERT INTO results (compound, modifier, reported_measurement) VALUES
  ('Cn1c(SSc2c(CC(=O)O)c3ccccc3n2C)c(CC(=O)O)c2ccccc21', '=', 4.28),
  ('O=C(O)Cc1c(SSc2[nH]c3ccccc3c2CC(=O)O)[nH]c2ccccc12', '=', 4.99),
  ('COC(=O)CCCc1c(SSc2c(CCCC(=O)OC)c3ccccc3n2C)n(C)c2ccccc12', '<', 4.00),
  ('O=C(O)CCC1(CCC(=O)O)C(=S)Nc2ccccc21', '<', 4.00),
  ('COC(=O)CCCc1c(SSc2[nH]c3ccccc3c2CCCC(=O)OC)[nH]c2ccccc12', '<', 4.00),
  ('COC(=O)CCC1(CCC(=O)OC)C(=S)Nc2ccccc21', '<', 4.00),
  ('O=C(O)CCC1C(S)=Nc2ccccc21 (centres undefined)', '=', 5.79),
  ('COC(=O)CCCC1C(=S)N(C)c2ccccc21 (centres undefined)', '<', 4.00),
  ('CN1C(=S)C(CC(=O)O)c2ccccc21 (centres undefined)', '<', 4.00),
  ('COC(=O)CC1C(=S)Nc2ccccc21 (centres undefined)', '=', 4.00),
  ('COC(=O)Cc1c(SSc2c(CC(=O)OC)c3ccccc3n2C)n(C)c2ccccc12', '=', 4.48),
  ('O=C(O)CCc1c(SSc2[nH]c3ccccc3c2CCC(=O)O)[nH]c2ccccc12', '=', 5.38),
  ('Cn1c(SSc2c(CCC(=O)O)c3ccccc3n2C)c(CCC(=O)O)c2ccccc21', '=', 5.51),
  ('CN1C(=S)C(CCC(=O)O)c2ccccc21 (centres undefined)', '=', 5.17),
  ('O=C(O)CCCC1C(=S)Nc2ccccc21 (centres undefined)', '=', 5.17),
  ('COC(=O)Cc1c(Sc2c(CC(=O)OC)c3ccccc3n2C)n(C)c2ccccc12', '<', 4.00),
  ('Cc1cccc2c(CCC(=O)O)c(SSc3[nH]c4c(C)cccc4c3CCC(=O)O)[nH]c12', '=', 5.82),
  ('COC(=O)CCC1C(S)=Nc2ccccc21 (centres undefined)', '<', 4.00),
  ('O=CN/C=C/c1cc(O)ccc1O', '=', 5.70),
  ('COC(=O)CCCC1C(=S)Nc2ccccc21 (centres undefined)', '<', 4.00),
  ('COC(=O)CC1C(=S)N(C)c2ccccc21 (centres undefined)', '<', 4.00),
  ('COC(=O)CCc1c(SSc2[nH]c3ccccc3c2CCC(=O)OC)[nH]c2ccccc12', '=', 4.68),
  ('COC(=O)CCC1C(=S)N(C)c2ccccc21 (centres undefined)', '<', 4.00),
  ('COC(=O)CCc1c(SSc2c(CCC(=O)OC)c3ccccc3n2C)n(C)c2ccccc12', '<', 4.00);
